Could you please report measured Kd for the items listed next?
Target: KRas^G12D GDP (Homo sapiens, UniProt P01116, G12D)
Construct: HRas 1-166 (His-TEV-N; pProEx; ampicillin resistance) and KRas 1-169; His tag with TEV site (N, cleaved yes); made in house; host or cells: E. coli BL21(DE3)
Sequence (P01116 1-169 isoform P01116-2 G12D): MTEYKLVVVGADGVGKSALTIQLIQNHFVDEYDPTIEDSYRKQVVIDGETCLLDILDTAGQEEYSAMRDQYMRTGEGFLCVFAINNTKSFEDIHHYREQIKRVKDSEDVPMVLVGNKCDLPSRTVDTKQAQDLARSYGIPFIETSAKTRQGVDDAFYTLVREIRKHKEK
Assay: 19F CPMG NMR probe binding (I/I0 vs probe concentration), GDP state
Conditions: non-linear regression eq 1, t=0.16 s; read-out: KD (extracted value, Table S1)
Experimental: We then sought to determine whether these SIIG-binders could serve as probe ligands to detect KRas proteins by ^19F NMR spectroscopy. […] Integrals (I) from single-point CPMG experiments were calculated by dividing the probe’s absolute integral by the standard’s absolute integral (3-trifluoromethylphenol, 3TFMP) from the same sample. […] In all cases, I and I0 were measured from the same premixed aliquot of probe and 3 -trifluoromethylphenol. […]

So, Cc1c(Cl)cc(O)cc1NC(=O)c1cnn(-c2ccc(OCCOCC(=O)NCCN)cc2)c1C(F)(F)F ? Its Kd was 307 µM

So, NCCNC(=O)COCCOc1ccc(-n2ncc(C(=O)Nc3cc(O)cc4ccccc34)c2C(F)(F)F)cc1 ? Its Kd was 352 µM

So, NCCNC(=O)COCCOc1ccc(-n2ncc(C(=O)Nc3ccc(O)c(Cl)c3)c2C(F)(F)F)cc1 ? Its Kd was 204 µM
